Organism: Homo sapiens
Assay: Selectivity index, ratio of Ki for recombinant human furin expressed in drosophila S2 cells to Ki for recombinant human PACE4 expressed in drosophila S2 cells
Format: cell-based
Square brackets hold non-standard residues; d marks the D form. Peptide text beside a SMILES is read from it. * marks the point of attachment. NH(4-amidinobenzyl) = N=C(N)c1ccc(CN*)cc1
Reported Ratio Ki by item:

# molecule, Ratio Ki
records = [
    ("CC(=O)N[C@@H](CC(C)C)C(=O)N[C@@H](CC(C)C)C(=O)N[C@@H](CC(C)C)C(=O)N[C@H](C(=O)N[C@@H](CCCNC(=N)N)C(=O)N[C@H](C(=O)N[C@@H](CCCCN)C(=O)NCc1ccc(C(=N)N)cc1)C(C)C)C(C)C (Ac-LLLVRVK-{NH(4-amidinobenzyl)})", 1.9),
    ("CC(=O)N[C@@H](CC(C)C)C(=O)N[C@@H](CC(C)C)C(=O)N[C@@H](C)C(=O)N[C@@H](CC(C)C)C(=O)N[C@@H](CCCNC(=N)N)C(=O)N[C@H](C(=O)N[C@@H](CCCCN)C(=O)NCc1ccc(C(=N)N)cc1)C(C)C (Ac-LLALRVK-{NH(4-amidinobenzyl)})", 0.4),
    ("CC(=O)N[C@H](CC(C)C)C(=O)N[C@@H](CC(C)C)C(=O)N[C@@H](CC(C)C)C(=O)N[C@@H](CC(C)C)C(=O)N[C@@H](CCCNC(=N)N)C(=O)N[C@H](C(=O)N[C@@H](CCCCN)C(=O)NCc1ccc(C(=N)N)cc1)C(C)C (Ac-[dL]LLLRVK-{NH(4-amidinobenzyl)})", 2),
    ("CC(=O)N[C@@H](Cc1ccc(O)cc1)C(=O)N[C@@H](CC(C)C)C(=O)N[C@@H](CC(C)C)C(=O)N[C@@H](CC(C)C)C(=O)N[C@@H](CCCNC(=N)N)C(=O)N[C@H](C(=O)N[C@@H](CCCCN)C(=O)NCc1ccc(C(=N)N)cc1)C(C)C (Ac-YLLLRVK-{NH(4-amidinobenzyl)})", 0.6),
    ("CC(=O)N[C@@H](CC(C)C)C(=O)N[C@@H](CO)C(=O)N[C@@H](CC(C)C)C(=O)N[C@@H](CC(C)C)C(=O)N[C@@H](CCCNC(=N)N)C(=O)N[C@H](C(=O)N[C@@H](CCCCN)C(=O)NCc1ccc(C(=N)N)cc1)C(C)C (Ac-LSLLRVK-{NH(4-amidinobenzyl)})", 1.3),
    ("CC(=O)N[C@@H](CC(C)C)C(=O)N[C@@H](CC(C)C)C(=O)N[C@@H](CC(C)C)C(=O)N[C@@H](CCC(=O)O)C(=O)N[C@@H](CCCNC(=N)N)C(=O)N[C@H](C(=O)N[C@@H](CCCCN)C(=O)NCc1ccc(C(=N)N)cc1)C(C)C (Ac-LLLERVK-{NH(4-amidinobenzyl)})", 0.8),
    ("CC(=O)N[C@@H](CC(C)C)C(=O)N[C@@H](CC(C)C)C(=O)N1CCC[C@H]1C(=O)N[C@@H](CC(C)C)C(=O)N[C@@H](CCCNC(=N)N)C(=O)N[C@H](C(=O)N[C@@H](CCCCN)C(=O)NCc1ccc(C(=N)N)cc1)C(C)C (Ac-LLPLRVK-{NH(4-amidinobenzyl)})", 0.4),
]

----------
Target: Furin (Homo sapiens)
Sequence (P09958 whole entry): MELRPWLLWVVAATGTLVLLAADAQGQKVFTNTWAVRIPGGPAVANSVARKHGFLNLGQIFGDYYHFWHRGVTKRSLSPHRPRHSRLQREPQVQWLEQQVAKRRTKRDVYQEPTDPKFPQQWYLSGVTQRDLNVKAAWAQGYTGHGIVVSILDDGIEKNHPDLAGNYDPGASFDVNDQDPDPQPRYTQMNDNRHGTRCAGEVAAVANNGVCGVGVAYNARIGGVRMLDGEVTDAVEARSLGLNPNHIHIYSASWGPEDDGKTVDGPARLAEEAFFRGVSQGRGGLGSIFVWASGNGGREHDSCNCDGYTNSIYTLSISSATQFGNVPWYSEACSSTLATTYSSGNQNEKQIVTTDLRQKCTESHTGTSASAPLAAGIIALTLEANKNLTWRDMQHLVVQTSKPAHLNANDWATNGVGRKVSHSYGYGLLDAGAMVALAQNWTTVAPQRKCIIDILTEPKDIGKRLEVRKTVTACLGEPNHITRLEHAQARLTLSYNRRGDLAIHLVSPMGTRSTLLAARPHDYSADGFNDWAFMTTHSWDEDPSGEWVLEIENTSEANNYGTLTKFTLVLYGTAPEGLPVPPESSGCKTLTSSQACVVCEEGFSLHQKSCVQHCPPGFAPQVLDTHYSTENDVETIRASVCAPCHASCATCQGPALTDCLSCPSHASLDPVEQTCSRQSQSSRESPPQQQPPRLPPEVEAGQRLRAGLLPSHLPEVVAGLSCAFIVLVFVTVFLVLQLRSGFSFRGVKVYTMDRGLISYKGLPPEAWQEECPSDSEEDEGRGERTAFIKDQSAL
Assay: Inhibition of recombinant human furin expressed in drosophila S2 cells using pyrGlu-Arg-Thr-Lys-Arg-7-amido-4-methylcoumarin as substrate after 60 mins by spectrofluorometry method
Peptide text beside a SMILES is read from it. * marks the point of attachment. NH(4-amidinobenzyl) = N=C(N)c1ccc(CN*)cc1
Reported Ki by item:

# compound, Ki, nM
data = [
    ("CC(=O)N[C@@H](CC(C)C)C(=O)N[C@@H](CC(C)C)C(=O)N[C@H](C(=O)N[C@@H](CC(C)C)C(=O)N[C@@H](CCCNC(=N)N)C(=O)N[C@H](C(=O)N[C@@H](CCCCN)C(=O)NCc1ccc(C(=N)N)cc1)C(C)C)C(C)C (Ac-LLVLRVK-{NH(4-amidinobenzyl)})", 3),
    ("CC(=O)N[C@@H](CCC(=O)O)C(=O)N[C@@H](CC(C)C)C(=O)N[C@@H](CC(C)C)C(=O)N[C@@H](CC(C)C)C(=O)N[C@@H](CCCNC(=N)N)C(=O)N[C@H](C(=O)N[C@@H](CCCCN)C(=O)NCc1ccc(C(=N)N)cc1)C(C)C (Ac-ELLLRVK-{NH(4-amidinobenzyl)})", 7),
    ("CC(=O)N[C@@H](CC(C)C)C(=O)N[C@@H](C)C(=O)N[C@@H](CC(C)C)C(=O)N[C@@H](CC(C)C)C(=O)N[C@@H](CCCNC(=N)N)C(=O)N[C@H](C(=O)N[C@@H](CCCCN)C(=O)NCc1ccc(C(=N)N)cc1)C(C)C (Ac-LALLRVK-{NH(4-amidinobenzyl)})", 1.5),
    ("CC(=O)N[C@@H](CC(C)C)C(=O)N[C@@H](CC(C)C)C(=O)N[C@@H](CCCNC(=N)N)C(=O)N[C@@H](CC(C)C)C(=O)N[C@@H](CCCNC(=N)N)C(=O)N[C@H](C(=O)N[C@@H](CCCCN)C(=O)NCc1ccc(C(=N)N)cc1)C(C)C (Ac-LLRLRVK-{NH(4-amidinobenzyl)})", 0.5),
]

Data provenance is ChEMBL document CHEMBL4049407.
